- target.system: hGLP-1R (Homo sapiens, UniProt P43220)
- test.description: cell-based or functional assay
*1 amine or outer side, *2 acyl side, *3 side chain or, on linkers, in order; H or OH if unused. Where no end group is shown, it is not given here. Side-chain parts run from the residue outwards. [ ]: non-standard residue; d: D form. The star is where a group is joined. Decanoyl(10-(4-HOOC-PhO)) = O=C(O)c1ccc(OCCCCCCCCCC(=O)*)cc1; αMePhe(2-F) = C[C@](N)(Cc1ccccc1F)C(=O)O; γGlu = O=C(O)[C@H](CCC(=O)[*:2])N[*:1]; αMeY = C[C@](N)(Cc1ccc(O)cc1)C(=O)O; αMeL = CC(C)C[C@](C)(N)C(=O)O; Orn = NCCC[C@H](N)C(=O)O; AEEA = NCCOCCOCC(=O)O; Aib = CC(C)(N)C(=O)O
value.kind: cAMP EC50 (nM)
One number for each entry, in nM.

binder: YXEGTXTSDKXIXLDXKAQXEFIXXLIEGGPSSGAPPPS (Y-Aib-EGT-αMeF(2F)-TSDK((2-[2-(2-Amino-ethoxy)-ethoxy]-acetyl)-(γ-Glu)-CO-(CH2)10-CH3)-Aib-I-αMeL-LD-Orn-K((2-[2-(2-Amino-ethoxy)-ethoxy]-acetyl)-(γ-Glu)-CO-(CH2)10-CH3)AQ-Aib-EFI-(D-Glu)-αMeY-LIEGGPSSGAPPPS-NH2) [Example 425]
cAMP EC50, nM: 0.0965
--
binder: YXEGTXTSDKXIXLDXKAQXXFIXXLIEGGPSSGAPPPS (Y-Aib-EGT-αMeF(2F)-TSDK((2-[2-(2-Amino-ethoxy)-ethoxy]-acetyl)2-(γ-Glu)-CO-(CH2)10-CH3)-Aib-I-αMeL-LD-Orn-K((2-[2-(2-Amino-ethoxy)-ethoxy]-acetyl)2-(γ-Glu)-CO-(CH2)10-CH3)AQ-Aib-Orn-FI-(D-Glu)-αMeY-LIEGGPSSGAPPPS-NH2) [Example 417]
cAMP EC50, nM: 0.0675
--
binder: YXEGTXTSDXXIXLDXKAQXXFIXXLIEGGPSSGAPPPSK (Y-Aib-EGT-αMeF(2F)-TSD-4Pal-Aib-I-αMeL-LD-Orn-K((2-[2-(2-Amino-ethoxy)-ethoxy]-acetyl)3-(γ Glu)-CO-(CH2)10CH3)AQ-Aib-Orn-FI-(D-Glu)-αMeY-LIEGGPSSGAPPPSK((2-[2-(2-Amino-ethoxy)-ethoxy]-acetyl)3-(γ-Glu)-CO-(CH2)10-CH3)-NH2) [Example 435]
cAMP EC50, nM: 0.0527
--
binder: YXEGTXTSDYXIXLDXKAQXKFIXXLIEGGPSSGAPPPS (Y-Aib-EGT-αMeF(2F)-TSDY-Aib-I-αMeL-LD-Orn-K((2-[2-(2-Amino-ethoxy)-ethoxy]-acetyl)2-(γ-Glu)-CO-(CH2)10-CH3)AQ-Aib-K((2-[2-(2-Amino-ethoxy)-ethoxy]-acetyl)2-(γ-Glu)-CO-(CH2)10-CH3)FI-(D-Glu)-αMeY-LIEGGPSSGAPPPS-NH2) [Example 300]
cAMP EC50, nM: 0.194
--
binder: YXEGTXTSDXXIXLDXKAQXEXIXXLIKGGPSSGAPPPS (Y-Aib-EGT-αMeF(2F)-TSD-4Pal-Aib-I-αMeL-LD-Orn-K((2-[2-(2-Amino-ethoxy)-ethoxy]-acetyl)3-(γ-Glu)-CO-(CH2)10-CH3)AQ-Aib-E-αMeF-I-(D-Glu)-αMeY-LIK((2-[2-(2-Amino-ethoxy)-ethoxy]-acetyl)3-(γ-Glu)-CO-(CH2)10-CH3)GGPSSGAPPPS-NH2) [Example 438]
cAMP EC50, nM: 0.471

Would you mind listing cAMP EC50 for each of the following binders?
1. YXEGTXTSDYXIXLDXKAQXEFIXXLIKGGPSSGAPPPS (Y-Aib-EGT-αMeF(2F)-TSDY-Aib-I-αMeL-LD-Orn-K((2-[2-(2-Amino-ethoxy)-ethoxy]-acetyl)-(γ-Glu)-(10-(4-carboxyphenoxy)decanoyl))AQ-Aib-EFI-(D-Glu)-αMeY-LIK((2-[2-(2-Amino-ethoxy)-ethoxy]-acetyl)-(γ-Glu)-(10-(4-carboxyphenoxy)decanoyl))GGPSSGAPPPS-NH2) [Example 373]
2. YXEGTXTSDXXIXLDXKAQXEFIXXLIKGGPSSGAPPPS (Y-Aib-EGT-αMeF(2F)-TSD-4Pal-Aib-I-αMeL-LD-Orn-K((2-[2-(2-Amino-ethoxy)-ethoxy]-acetyl)2-(γ-Glu)-CO-(CH2)12-CO2H)AQ-Aib-EFI-(D-Glu)-αMeY-LIK((2-[2-(2-Amino-ethoxy)-ethoxy]-acetyl)2-(γ-Glu)-CO-(CH2)12-CO2H)GGPSSGAPPPS-NH2) [Example 358]
3. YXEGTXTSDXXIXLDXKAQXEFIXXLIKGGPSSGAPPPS (Y-Aib-EGT-αMeF(2F)-TSD-4Pal-Aib-I-αMeL-LD-Orn-K((2-[2-(2-Amino-ethoxy)-ethoxy]-acetyl)2-(γ-Glu)-CO-(CH2)10-CH3)AQ-Aib-EFI-(D-Glu)-αMeY-LIK((2-[2-(2-Amino-ethoxy)-ethoxy]-acetyl)2-(γ-Glu)-CO-(CH2)10-CH3)GGPSSGAPPPS-NH2) [Example 334]
4. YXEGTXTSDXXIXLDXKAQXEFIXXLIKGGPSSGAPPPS (Y-Aib-EGT-αMeF(2F)-TSD-4Pal-Aib-I-αMeL-LD-Orn-K((2-[2-(2-Amino-ethoxy)-ethoxy]-acetyl)3-(γ-Glu)-CO-(CH2)10-CH3)AQ-Aib-EFI-(D-Glu)-αMeY-LIK((2-[2-(2-Amino-ethoxy)-ethoxy]-acetyl)3-(γ-Glu)-CO-(CH2)10-CH3)GGPSSGAPPPS-NH2) [Example 423]
5. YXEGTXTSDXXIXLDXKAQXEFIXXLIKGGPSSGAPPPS (Y-Aib-EGT-αMeF(2F)-TSD-4Pal-Aib-I-αMeL-LD-Orn-K((2-[2-(2-Amino-ethoxy)-ethoxy]-acetyl)-(γ-Glu)-CO-(CH2)10-CH3)AQ-Aib-EFI-(D-Glu)-αMeY-LIK((2-[2-(2-Amino-ethoxy)-ethoxy]-acetyl)-(γ-Glu)-CO-(CH2)10-CH3)GGPSSGAPPPS-NH2) [Example 427]
6. Y[Aib]EGT[αMePhe(2-F)]TSDV[Aib]I[αMeL]LD[Orn]K([AEEA-AEEA-γGlu-Decanoyl(10-(4-HOOC-PhO))])AQ[Aib]EFI[dE][αMeY]LIK([AEEA-AEEA-γGlu-Decanoyl(10-(4-HOOC-PhO))])GGPSSGAPPPS-NH2 [Example 326]
7. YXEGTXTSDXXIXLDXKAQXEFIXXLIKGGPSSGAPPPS (Y-Aib-EGT-αMeF(2F)-TSD-4Pal-Aib-I-αMeL-LD-Orn-K((2-[2-(2-Amino-ethoxy)-ethoxy]-acetyl)-Aoc-CO-(CH2)12-CO2H)AQ-Aib-EFI-(D-Glu)-αMeY-LIK(((2-[2-(2-Amino-ethoxy)-ethoxy]-acetyl)-Aoc-CO-(CH2)12-CO2H)GGPSSGAPPPS-NH2)) [Example 465]

0.329
0.773
0.131
0.0721
0.206
0.186
0.413
